The measurements presented in this section are drawn from the supplement of paper PMC10307832.

System: LK-2
Assay: relative viability (nuclei count vs DMSO), 5 days (fraction); higher = more cells survive
Details: first compound 0.253 µM
Metric Name: relative viability

>>> assay_value("O=c1[nH]c2ccccc2n1C1CCN(CCCC(c2ccc(F)cc2)c2ccc(F)cc2)CC1 [Pimozide] + NC(=O)Nc1cc(-c2cccc(F)c2)sc1C(=O)N[C@H]1CCCNC1 [AZD7762] (partner 0.2 µM)")
0.438
>>> assay_value("Cc1cnc(-c2cnc(NCCNc3ccc(C#N)cn3)nc2-c2ccc(Cl)cc2Cl)[nH]1 + COc1cccc2cc(-c3nc([C@H]4CC[C@H](C(=O)O)CC4)n4ncnc(N)c34)[nH]c12 [OSI-027] (partner 0.5 µM)")
0.248
>>> assay_value("Cc1cnc(-c2cnc(NCCNc3ccc(C#N)cn3)nc2-c2ccc(Cl)cc2Cl)[nH]1 + CS(=O)(=O)N1CCN(Cc2cc3nc(-c4cccc5[nH]ncc45)nc(N4CCOCC4)c3s2)CC1 [Pictilisib] (partner 1 µM)")
0.577
>>> assay_value("O=c1[nH]c2ccccc2n1C1CCN(CCCC(c2ccc(F)cc2)c2ccc(F)cc2)CC1 [Pimozide] + Nc1ncn([C@H]2C[C@H](O)[C@@H](CO)O2)c(=O)n1 [Decitabine] (partner 2 µM)")
0.289
>>> assay_value("O=c1[nH]c2ccccc2n1C1CCN(CCCC(c2ccc(F)cc2)c2ccc(F)cc2)CC1 [Pimozide] + CS(=O)(=O)N1CCN(Cc2cc3nc(-c4cccc5[nH]ncc45)nc(N4CCOCC4)c3s2)CC1 [Pictilisib] (partner 1 µM)")
0.605

###

System: PC-14
Experiment: relative viability (nuclei count vs DMSO), 5 days (fraction); higher = more cells survive
Conditions: first compound 0.1265 µM
Metric Name: relative viability

>>> assay_value("Cc1sc2c(c1C)C(c1ccc(Cl)cc1)=N[C@@H](CC(=O)OC(C)(C)C)c1nnc(C)n1-2 [JQ1] + C[C@@H](Oc1cc(-c2cnn(C3CCNCC3)c2)cnc1N)c1c(Cl)ccc(F)c1Cl [Crizotinib] (partner 1 µM)")
0.781
>>> assay_value("Cc1sc2c(c1C)C(c1ccc(Cl)cc1)=N[C@@H](CC(=O)OC(C)(C)C)c1nnc(C)n1-2 [JQ1] + CC(=O)Nc1cccc(-n2c(=O)n(C3CC3)c(=O)c3c(Nc4ccc(I)cc4F)n(C)c(=O)c(C)c32)c1 [Trametinib] (partner 0.02 µM)")
0.174
>>> assay_value("Cc1sc2c(c1C)C(c1ccc(Cl)cc1)=N[C@@H](CC(=O)OC(C)(C)C)c1nnc(C)n1-2 [JQ1] + N=C(N)NC(=N)NCCc1ccccc1 [Phenformin] (partner 250 µM)")
0.237
>>> assay_value("Cc1sc2c(c1C)C(c1ccc(Cl)cc1)=N[C@@H](CC(=O)OC(C)(C)C)c1nnc(C)n1-2 [JQ1] + COc1cccc2cc(-c3nc([C@H]4CC[C@H](C(=O)O)CC4)n4ncnc(N)c34)[nH]c12 [OSI-027] (partner 0.5 µM)")
0.638

###

Quick reference for relative viability among some molecules
Tested on: 201T
Assay: relative viability (nuclei count vs DMSO), 5 days (fraction); higher = more cells survive
Settings: first compound 0.05 µM
Metric Name: relative viability

>>> assay_value("COc1cc2nccc(Oc3ccc(NC(=O)Nc4cc(C)on4)c(Cl)c3)c2cc1OC [Tivozanib] + O=C(CCCCCCC(=O)Nc1ccccc1)NO [Vorinostat] (partner 1 µM)")
1
>>> assay_value("COc1cc2nccc(Oc3ccc(NC(=O)Nc4cc(C)on4)c(Cl)c3)c2cc1OC [Tivozanib] + CC1(C)CCC(c2ccc(Cl)cc2)=C(CN2CCN(c3ccc(C(=O)NS(=O)(=O)c4ccc(N[C@H](CCN5CCOCC5)CSc5ccccc5)c(S(=O)(=O)C(F)(F)F)c4)cc3)CC2)C1 [Navitoclax] (partner 0.5 µM)")
1.22
>>> assay_value("COc1cc2nccc(Oc3ccc(NC(=O)Nc4cc(C)on4)c(Cl)c3)c2cc1OC [Tivozanib] + COc1cccc2cc(-c3nc([C@H]4CC[C@H](C(=O)O)CC4)n4ncnc(N)c34)[nH]c12 [OSI-027] (partner 0.5 µM)")
0.36
>>> assay_value("Nc1ccn([C@@H]2O[C@H](CO)[C@@H](O)[C@@H]2O)c(=O)n1 [Cytarabine] + O=C(c1cc(Cc2n[nH]c(=O)c3ccccc23)ccc1F)N1CCN(C(=O)C2CC2)CC1 [Olaparib] (partner 8 µM)")
0.914
>>> assay_value("COc1cc2nccc(Oc3ccc(NC(=O)Nc4cc(C)on4)c(Cl)c3)c2cc1OC [Tivozanib] + COc1cc2c(Oc3ccc(NC(=O)C4(C(=O)Nc5ccc(F)cc5)CC4)cc3F)ccnc2cc1OCCCN1CCOCC1 [Foretinib] (partner 0.25 µM)")
1.08
>>> assay_value("Nc1ccn([C@@H]2O[C@H](CO)[C@@H](O)[C@@H]2O)c(=O)n1 [Cytarabine] + C[C@]1(O)C[C@@H](c2nc(-c3ccc4ccc(-c5ccccc5)nc4c3)c3c(N)nccn32)C1 [Linsitinib] (partner 1 µM)")
1.03
>>> assay_value("COc1cc2nccc(Oc3ccc(NC(=O)Nc4cc(C)on4)c(Cl)c3)c2cc1OC [Tivozanib] + CS(=O)(=O)CCNCc1ccc(-c2ccc3ncnc(Nc4ccc(OCc5cccc(F)c5)c(Cl)c4)c3c2)o1 [Lapatinib] (partner 2 µM)")
1.01
>>> assay_value("COc1cc2nccc(Oc3ccc(NC(=O)Nc4cc(C)on4)c(Cl)c3)c2cc1OC [Tivozanib] + NC(=O)Nc1cc(-c2cccc(F)c2)sc1C(=O)N[C@H]1CCCNC1 [AZD7762] (partner 0.2 µM)")
0.659
>>> assay_value("Nc1ccn([C@@H]2O[C@H](CO)[C@@H](O)[C@@H]2O)c(=O)n1 [Cytarabine] + CCNC(=O)c1noc(-c2cc(C(C)C)c(O)cc2O)c1-c1ccc(CN2CCOCC2)cc1 [Luminespib] (partner 0.01 µM)")
1.14
>>> assay_value("Nc1ccn([C@@H]2O[C@H](CO)[C@@H](O)[C@@H]2O)c(=O)n1 [Cytarabine] + Cc1nc(Nc2ncc(C(=O)Nc3c(C)cccc3Cl)s2)cc(N2CCN(CCO)CC2)n1 [Dasatinib] (partner 0.075 µM)")
0.709
>>> assay_value("Nc1ccn([C@@H]2O[C@H](CO)[C@@H](O)[C@@H]2O)c(=O)n1 [Cytarabine] + Cc1nc(NC(=O)N2CCC[C@H]2C(N)=O)sc1-c1ccnc(C(C)(C)C(F)(F)F)c1 [Alpelisib] (partner 2 µM)")
1.02
